# Target Or System: Recombinant human his-tagged IGF R extracellular domain protein (human) (UniProt P08069)
# Protocol Summary: SPR, Ab captured via anti-huIgG Fc, dissociation at pH 6
Quantity Name: kon (M⁻¹ s⁻¹)
Answers are plain numbers, in M⁻¹ s⁻¹.

Examples from the recorded data:
Binder | Quantity Name | Numeric Value
VRDN-02043 (antibody, V domains shown) VH: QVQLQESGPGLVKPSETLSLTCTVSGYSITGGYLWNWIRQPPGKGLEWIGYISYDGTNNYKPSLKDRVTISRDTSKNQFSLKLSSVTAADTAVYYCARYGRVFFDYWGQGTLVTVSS VL: DIVMTQSPLSLPVTPGEPASISCRSSQSIVHSNGNTYLHWYLQKPGQSPQLLIYKVSNRLYGVPDRFSGSGSGTDFTLKISRVEAEDVGVYYCFQGSHVPWTFGQGTKVEIK | kon | 80400
VRDN-02015 (antibody, V domains shown) VH: QVQLQESGPGLVKPSETLSLTCTVSGYSITGGYLWNWIRQPPGKGLEWIGYISHDGTNNYKPSLKDRVTISRDTSKNQFSLKLSSVTAADTAVYYCARYGRVFFDYWGQGTLVTVSS VL: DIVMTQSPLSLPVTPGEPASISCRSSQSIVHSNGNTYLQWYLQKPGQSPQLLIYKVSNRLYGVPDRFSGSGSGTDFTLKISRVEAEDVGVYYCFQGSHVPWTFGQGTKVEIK | kon | 91400

// moving on: another record for kon
The binder identified as VRDN-02039 (antibody, V domains shown) VH: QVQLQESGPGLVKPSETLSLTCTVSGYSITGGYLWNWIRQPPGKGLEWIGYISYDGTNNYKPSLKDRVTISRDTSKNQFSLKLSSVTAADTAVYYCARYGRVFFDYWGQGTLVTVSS VL: DIVMTQSPLSLPVTPGEPASISCRSSQSIVHSNGHTYLQWYLQKPGQSPQLLIYKVSNRLYGVPDRFSGSGSGTDFTLKISRVEAEDVGVYYCFQGSHVPWTFGQGTKVEIK registered its kon at 79800
